# System: K4 kissing-loop RNA reporter;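 further: bound reporter read as fluorescence of individual clusters on recovered sequencing chips by microscopy, with normalized cluster intensities fitted with a binding model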
# experimental details: apparent KD of K4 kissing-loop reporter; higher = weaker reporter binding
# condition details: Eterna round: R107; input ligand: theophylline 20 uM
Each entry falls into one class according to its apparent KD of K4 kissing-loop reporter; the ranges are group 1 = under 200 nM, group 2 = from 200 nM up to 300 nM, group 3 = 300 nM and over

>  <entry sequence>
UAGUCCUAGUGAUGGUUAUCACGUGGUGGGCGAGGACCGGUACGGCCGCCACUCGACUUUGCAGUGAUGUUGCAAACCGGACAAU [Exclusion - Tryptophan A (Freestyle 18)]

>  <class assignment>
group 2

$$$$
>  <entry sequence>
GCCUGGGCACGAAGGAGCGCCGUGACAGGUUACUGCCGUGGGCAGUGAUGUUGCUCAAUCUGGCAGGUAGGUCGCGUGCCCAGGC

>  <class assignment>
group 1

$$$$
>  <entry sequence>
GGGAAGAAGGCGGCCGCCACUGCAGAAGAGACAGAGAGGGUAGAAGAGGAGUGAUGUUCCAAGAACAGGACCGGGCCAAGAAGGG [whbob_SS_Tryp_B_t30]

>  <class assignment>
group 2

$$$$
>  <entry sequence>
GUUAUAUAAAUAAGAAAUAAAAUAAGGGAAGGAGCGCCGAGAAAGGCAGGUAGGUCGCCCAGUGAUGUUGGGAUUAAUUAAUUAG

>  <class assignment>
group 1

$$$$
>  <entry sequence>
UUAUACAACUGAAGGAGCGCCAGUGAUGUUGGCGUGACGACUGCUUCCUUCGCCGAGUCCUGGCAGGUAGGUCGCAGUUGCUGAA [Oratgere]

>  <class assignment>
group 1

$$$$
>  <entry sequence>
UGAUGUUUAGGUCACCCAGUGAUGUUGGAAGGAGCGUGCGAAAGCACAGGUAGGUCGCCAAUCUCCUUGUGACCUGAGCAUCUAA [#SwitchBubble 14 #K4Early]

>  <class assignment>
group 3

$$$$
>  <entry sequence>
AACAGCAAUGCGGCCGCCACUUCGAGGUCAGUGAUGUUGACGGGAUUAAAUAAAGAUCCCAAGAGGAGGACCGGGCAGUGCUGUU [whbob_SS_Tryp_B_t26]

>  <class assignment>
group 1

$$$$
>  <entry sequence>
GAUGAUCGCGCGGCCGCCACUGGUCAGUGAUGUUGACAUUAAGGCGCCGAGUAGUAACGGCGCCACAGGACCGGGCGCGAUGUAG [First Shot]

>  <class assignment>
group 1

$$$$
>  <entry sequence>
GCGCGGCUCAGUGAUGUUGAGCCUCGGAAACGAGGACCGGUACGGCCGCCACUCGUCCGCGCAGCUGAGGCAAAAGCCUCGGCAA [Omei KL Tryp A SS B v1]

>  <class assignment>
group 3

$$$$
>  <entry sequence>
GCCGUAGAUUGAAGGAGCGGCAUUAACGAUGUUCUGGUAGUGAUGUUACCUCAGCAGACAUGCCAGGUAGGUCGCAAUCUACGGC

>  <class assignment>
group 1

$$$$
>  <entry sequence>
CGAAAUAGAACGGCCGCCACUGUAAGUCCUGACAGUAAGUGAUGUUUGAAAGAUUCGGGUAUUCGCAGGACCGGGUUCGUCAUAA [theeternabot_sameState_KL_Trp_B_13]

>  <class assignment>
group 3

$$$$
>  <entry sequence>
UCGGCAGUGAACGAUACCAGCGUCACGUGGCUGGUGGUCACAUGAGUGAUGUUCAUGUAACGCCCUUGGCAGCGUGCGCGUACCG [KL-XTheo-B11]

>  <class assignment>
group 1

$$$$
>  <entry sequence>
AGACUACCACACUGUCAAUAGACAGUGGACUAGGAUAUGCUGAUAAGCAGAAGGAGUGAUGUUCCUAGGUAGUCAAUAAAAUAAU [FmnAX 13 G28]

>  <class assignment>
group 3

$$$$
>  <entry sequence>
GUAGCACUUGGUAGUGAUGUUACCAAGGACAAGGAUAUCAUCUCAAUGAGAAGGUGUCCUUGGUAACAGCUACGGGAAUAUCCCA [Omei KL FMN A Exc D v2]

>  <class assignment>
group 2

$$$$
>  <entry sequence>
AGUUCUUGCCGAAGGAGCGAGGCAGAGUGAUGUUCUGCAAAGGUCGAAAGACCUUAACUGCCUCAGGUAGGUCGCGGCAUGAACA [KL-XARG-B23]

>  <class assignment>
group 3

$$$$
>  <entry sequence>
UGAACUUUUGCUAGGAACCGUCUAGCUCUUUAGGAUAUCUGGAAACAGAGAAGGAAAGACCUACAGAGUGAUGUUCUGCGUUCAU

>  <class assignment>
group 3

$$$$
>  <entry sequence>
GUAAGAUGAGGAGGAGGAUGAAUUACUGAAGGAGCGCAUAUAAAUGCAGGUAGGUCGCGGUAAAGAAGUAUAGUGAUGUUAUAUA [#20 K4 Arginine A Same State]

>  <class assignment>
group 3

$$$$
>  <entry sequence>
GGUAGCAUGGCGGCCGCCACUUCAAUUGGAGUGAUGUUCCAAGGCAUCGCGAAAGCGAUGCCAGGAAGGACCGGGCCAUGCUACC

>  <class assignment>
group 2

$$$$
>  <entry sequence>
AAUCAAUACAGAAGGAGCGUGACAAUUACUAUUGAAUUAGGAGCUAGUGAUGUUAGCAUAACACAGGUAGGUCGCUGUACAUUUA [JR_SSArginiB_Sub012]

>  <class assignment>
group 1

$$$$
>  <entry sequence>
AGGCGCUUAAGUCAGUGAUGUUGAUUAUAUCGAGGACCGGUACGGCCGCCACUCGGCUUUCAUCCGCCAUCGUAGUCCUAAAACC [theeternabot_sameState_KL_Trp_A_25]

>  <class assignment>
group 3

$$$$
>  <entry sequence>
UUUGGAAGCGGUGUUGAUUAGGGAGCGGAAGGAGCGCCGAUUAUGGCAGGUAGGUCGCCGGAAUGUAGUGAUGUUGCAUAGAGGU [ExArgA.X]

>  <class assignment>
group 2

$$$$
>  <entry sequence>
UAUUUGAUGUCAGGAUAUCGUAUACGAGUGAUGUUCGUAUUUCUACUAUAGAUUAUUUAAAUUUUUCGAGAAGGGACAACAUUUA [#04 K4 FMN B Same State]

>  <class assignment>
group 1

$$$$
>  <entry sequence>
GCUAUGGUAGGAAGGAGCGCUACUUUGUUUUUACGAGUGAUGUUCGGAAGCAGAGUGUUAAAGCAGGUAGGUCGCCUACUAUAGC [Arginine B K4 20]

>  <class assignment>
group 1

$$$$

###

# Test system: MS2 coat protein
# experimental details: apparent KD of MS2 coat protein; designed switch direction (-1 OFF switch, 1 ON switch): 1; higher = weaker reporter binding
# condition details: Eterna round: R95; input ligand: none
Class class 1: apparent KD of MS2 coat protein at least 0.08 µM. Class class 0: apparent KD of MS2 coat protein below 0.08 µM.

>  <entry sequence>
GGUCCAGCCUGAGCUGGACGAUAGUAUGUACAUGAGGAUCACCCAUGUCAUGUAUAAGUAUUUUGUUUGUCUUGAAA [Sensorship 3 - Jieux - Sensor for hsa-mir-208a] (puzzle: Sensor for hsa-mir-208a)

>  <class assignment>
class 0

$$$$
>  <entry sequence>
CCGCGCUGUCGAGAGGAUAUGCGGUGAUGGACAUGAGGAUCACCCAUGUUAGCGAUAGCAUUACUGUAGAAGGCUCUACAGCGGC [JL-ss2-3.10 ViennaUCT mod] (puzzle: Same State 2)

>  <class assignment>
class 0

$$$$
>  <entry sequence>
GUUAAACAUGAGGAUCACCCAUGUCAAUGUAGUCGAGGAUAUGGGCAGCUAUGAGGCGUACUAGAAGGCGAAAAGU [Mat - Same State 1 - Mod of JL - D13] (puzzle: Same State 1)

>  <class assignment>
class 1

$$$$
>  <entry sequence>
AUUUUAAAACAUGAGGAUCACCCAUGUUACAAGCUUUUUUUUUUUUUUUUUUUUUGGUGAUCCUCAGCUCGUCUUAU [lrlee 1] (puzzle: Sensor for hsa-mir-208a version 2)

>  <class assignment>
class 0

$$$$
>  <entry sequence>
AUCUCUGUGCCGCAGGAUAUACCAACGGCUACAUGAGGAUCACCCAUGUCAUACCGUCGAAAGUGGUAGAAGGGUGUGCACGAGC [Reteonar] (puzzle: Same State 2)

>  <class assignment>
class 1

$$$$
>  <entry sequence>
UACAAUCUAUCUGAGGAUAUCAUGAAGAAAACAUGAGGAUCACCCAUGUGCAGGAUAACUGCAAAUGAGAAGGCAGAUAGAUUGG [Mat - Same State 2 - Mod - D4] (puzzle: Same State 2)

>  <class assignment>
class 0

$$$$
>  <entry sequence>
GAAGGAUGAGCGUAGGAUAUAGGAGGAGUGACAUGAGGAUCACCCAUGUAGUAAGAGGGAGGGUACUAGAAGGACGAGGAAGAAG [JR_SS2_Sub066] (puzzle: Same State 2)

>  <class assignment>
class 0

$$$$
>  <entry sequence>
GAGUGAUGGGUUAGUAACUGCUAGGAAGGACAUGAGGAUCACCCAUGUGAGUAACGAGCUUGUGCUCGUCUUAUAAG [JR_SHM208A_Sub021] (puzzle: Sensor for hsa-mir-208a)

>  <class assignment>
class 1

$$$$
>  <entry sequence>
GGAGCCGACACUGAGGAUAUUCAUAUUAAAACAUGAGGAUCACCCAUGUAGGCCAGAAGGCCUUGGGAGAAGGCAGGUCGGCCCG [Bibimoar - 2] (puzzle: Same State 2)

>  <class assignment>
class 1

$$$$
>  <entry sequence>
ACAAGCUUUUUUGUAGUGAAAGGUGGGAUACAUGAGGAUCACCCAUGUAUUGUUGUUAAUAUUUGUCCUCGUCUUAU [JR_SHM208A_Sub085] (puzzle: Sensor for hsa-mir-208a)

>  <class assignment>
class 0

$$$$
>  <entry sequence>
AGUCCUGAAAGGAAAAUUAUAAGUGAUGUACAUGAGGAUCACCCAUGUCAUGUACAAGUUCUAUGCUCGUCUUAUAA [Sensorship 25 - Jieux - Sensor for hsa-mir-208a] (puzzle: Sensor for hsa-mir-208a)

>  <class assignment>
class 1

$$$$
>  <entry sequence>
AGUCCUGAAAAGAAAAUAAAGAGAGAUGUACAUGAGGAUCACCCAUGUCAUGUACAAGUUCUAUGCUCGUCAUAUAA [Sensorship 23 - Jieux - Sensor for hsa-mir-208a] (puzzle: Sensor for hsa-mir-208a)

>  <class assignment>
class 1

$$$$
>  <entry sequence>
UCUUGGUUUUUGCUCGUUUUUUGUGUUGAACAUGAGGAUCACCCAUGUAUUGUACGGUCCGGUUUAAUAAUGGUCCG [JMF 12] (puzzle: Sensor for hsa-mir-208a)

>  <class assignment>
class 0

$$$$
>  <entry sequence>
UAAACUAGUUAUAGUGUAAUGCAUAUUAUACAUGAGGAUCACCCAUGUGAUGGUUGGUAUGAUUUUGUUCGUCUUAA [JR_SHM208A_Sub079] (puzzle: Sensor for hsa-mir-208a)

>  <class assignment>
class 1

$$$$
>  <entry sequence>
GUGCAACCGUGUGAGGAUAUCGGUGGUAAAACAUGAGGAUCACCCAUGUCCGAAGCUCGGACCUCCGAGAAGGCGCACAGUUGCA [Same State 2 - Mod of Erisin v.1] (puzzle: Same State 2)

>  <class assignment>
class 0

$$$$
>  <entry sequence>
AAUAAAGUCAGUAAGGAUAUCCAAAUGGCGACAUGAGGAUCACCCAUGUAAGAAACCCGACAUCGGGAGAAGGUACAUGACGAUG [Enlaorle] (puzzle: Same State 2)

>  <class assignment>
class 1

$$$$
>  <entry sequence>
AGUCCAGCCUAAGCUGGACAAAAGCAUGUACAUGAGGAUCACCCAUGUUCAUGUACAAGCUUUUUGCAAGUCAAAAU [Mat - hsa-mir-208a - Mod of JL - 79] (puzzle: Sensor for hsa-mir-208a)

>  <class assignment>
class 1

$$$$
>  <entry sequence>
GGCUAUCGCGUACGAUAGCUGAAGCAUGUACAUGAGGAUCACCCAUGUCAUGUACAAGCUUUUUGCUCGUCUUAUUG [JL-shm-2.32 JL mod] (puzzle: Sensor for hsa-mir-208a)

>  <class assignment>
class 1

$$$$
